Assay: S. cerevisiae RM11-1a growth modifiers, primary screen, strain RM11-1a, OD600, basal, 24 h (AID 1177);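 note: cultures grown under basal conditions with no added stressor; test concentration not given here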
Conditions: OD600, 24 h, higher = more signal, called active from +8 up or from −8 down
Parameter threshold = -0.2. Response is class 1 when z-score meets or exceeds it, else class 0.

INSERT INTO assay_data (molecule, assignedclass) VALUES
  ('CC(CCN1CCc2nc(-c3ccccc3)c(-c3ccccc3)cc2C1)=NO[C@H](C)c1cn([C@@H]2COC[C@H]2O)nn1', 'class 0');

Query :: Say whether Cc1ccc(C2CC=C(C(=O)O)CN2S(=O)(=O)c2ccc(C)cc2)cc1 (stereo not drawn) shows z-score of -0.2 or more.
Result :: class 1

Query :: Say whether CC1(C)OCC(C(O)C2=CCCCC2=O)CO1 (stereo not drawn) shows z-score of -0.2 or more.
Result :: class 1

Query :: Say whether `C=COC[C@H]1CN2[C@@H](CC[C@@H](C)[C@@H]2c2ccc(Br)cc2)C(=O)O1` shows z-score of -0.2 or more.
Result :: class 0

Query :: Say whether c1ccc(C2NCCc3c2[nH]c2ccccc32)cc1 (stereo not drawn) shows z-score of -0.2 or more.
Result :: class 1

Query :: Say whether `CC(C)(C)N1C(=O)[C@H]2[C@H]3[C@H](O)[C@H](O)CC(=NO[C@@H]4O[C@H](CO)[C@@H](O)[C@H](O)[C@H]4O)[C@@H]3CC[C@H]2C1=O` shows z-score of -0.2 or more.
Result :: class 0

Query :: Say whether `CCOC(=O)CCN1C(=O)[C@H]2[C@H]3[C@H](O)[C@H](O)CC(=NNC(=O)OCc4ccc(OC)cc4)[C@@H]3CC[C@H]2C1=O` shows z-score of -0.2 or more.
Result :: class 0

Query :: Say whether CC(C)(C)N1CC=CC23O[C@@H]4C=CCCOC(=O)C4[C@H]2C(=O)N(CCCCCO)[C@@H]3C1=O (stereo partly drawn) shows z-score of -0.2 or more.
Result :: class 1

###

Assay: yeast growth modulation, basal conditions, primary screen, YJM789 clinical isolate, OD600, 24 h (AID 1089);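 note: growth of clinical yeast isolate S. cerevisiae YJM 789 seeded 1000 cells per well; test concentration not given here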
Details: S. cerevisiae YJM789 growth, higher = more signal, called active from +8 up or from −8 down
recordedEndpoint: z-score
Form field (numeric): enter value without unit.

Worked examples follow.
INSERT INTO assay_data (compound, recordedendpoint, reading) VALUES
  ('CC(C)=NOCc1ccc(-c2cc(-c3ccccc3)no2)cc1', 'z-score', 0.237),
  ('CO[C@H]1COC(=O)[C@H](C)COC(=O)CC=C[C@@H](C)[C@H](OC)COC(=O)CC=C[C@@H]1C', 'z-score', 0.0305),
  ('COc1ccc(-c2ccc3c(n2)CCCN3CC(O)CN2CCCc3nc(C)c(C)cc32)cc1 (stereo unspecified)', 'z-score', 0.0222),
  ('COCCCNC(=O)[C@]1(Cc2ccccc2)N=C(c2ccc(OCCCO)cc2)O[C@@H]1c1ccccc1', 'z-score', -1),
  ('CCc1cc2c(nc1CC)CCN(CCC(C)=NOC[C@@H](O)COCc1ccco1)C2', 'z-score', -0.907);

Please find the next compound below.
Query :: Quick one: z-score of COC(=O)[C@H](C)NC(=O)CCC1CC(OC(=O)NCCc2ccc(F)cc2)CC2(CCCC(COC(=O)NCCc3ccc(Cl)cc3)O2)O1 (stereo partly specified) ?
Result :: 0.86

###

Test system: Human papillomavirus type 1a protein E7 (residues 44-93)
Assay: HPV1a E7 fragment binders on microarrays, primary screen, biochemical, small-molecule microarray, residues 44-93, 635 nm fluorescence (AID 1108);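 note: E7 fragment applied at 1 µg/mL in TBST for 1 h at 4 C; score combines spot fluorescence with its signal to noise ratio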
Conditions: small-molecule microarray binding, fluorescence 635 nm; higher = more signal
recordedEndpoint: composite z-score

Worked examples follow.
INSERT INTO assay_data (compound, recordedendpoint, reading) VALUES
  ('COc1ccc([Si](C)(C)[C@@H]2[C@@H](CC(=O)N3CCC[C@H]3CO)O[C@]3(C(=O)N(Cc4cccc(N5CCC5=O)c4)c4ccccc43)[C@H]2C)cc1', 'composite z-score', 1.4),
  ('COc1ccc(O[C@H]2C=C[C@@H](c3ccccc3)O[C@@H]2COC(=O)CCC(C)=NO[C@@H](C)c2cc(-c3c(C)cc(C)cc3C)no2)cc1', 'composite z-score', -1.13),
  ('Cc1ccc(F)cc1S(=O)(=O)N[C@@H]1CCN(Cc2ccc(CC(C)C)cc2)C1', 'composite z-score', 0.135),
  ('COc1cccc([C@H]2Oc3ccc(OC)cc3C(=NO[C@H](C)c3cn([C@@H]4COC[C@H]4O)nn3)[C@@H]2O)c1', 'composite z-score', -0.632),
  ('CCOC(=O)[C@H](Cc1ccccc1)NC(=O)CCC1CC(OC(=O)NCc2ccc3c(c2)OCO3)CC2(CCCC(COC(=O)NCc3ccccc3)O2)O1 (stereo not given in full)', 'composite z-score', 1.33);

Query :: Missing value: composite z-score, Human papillomavirus type 1a protein E7 (residues 44-93), entry `[N-]=[N+]=NCc1ccccc1[C@@H]1OC(c2ccc(OCCCO)cc2)=N[C@]1(Cc1ccccc1)C(=O)N1CCOCC1` . Fill in?
Result :: 0.0452

Query :: Missing value: composite z-score, Human papillomavirus type 1a protein E7 (residues 44-93), entry `COC(=O)CC=C[C@H](C)[C@H](CO)NS(=O)(=O)c1ccc(C)cc1` . Fill in?
Result :: 0.144

Query :: Missing value: composite z-score, Human papillomavirus type 1a protein E7 (residues 44-93), entry `O=C(CS)NCCCCCNC(=O)[C@@H]1C[C@@H]2C(=O)N[C@@H](Cc3ccccc3)C(=O)N2[C@@H]1c1ccc(O)cc1` . Fill in?
Result :: 0.985

Query :: Missing value: composite z-score, Human papillomavirus type 1a protein E7 (residues 44-93), entry `COC(=O)[C@H]1COC(c2ccc(OCCCO)cc2)=N1` . Fill in?
Result :: -1.8

Query :: Missing value: composite z-score, Human papillomavirus type 1a protein E7 (residues 44-93), entry `COc1ccc(O[C@H]2C=C[C@@H](c3ccccc3)O[C@@H]2CON=C[C@@H](C)[C@H](OCc2ccccc2)C(C)C)cc1` . Fill in?
Result :: -0.409

Query :: Missing value: composite z-score, Human papillomavirus type 1a protein E7 (residues 44-93), entry `CC(CCN1CCc2nc(-c3ccccc3)c(-c3ccccc3)cc2C1)=NO[C@H](C)c1cn([C@@H]2COC[C@H]2O)nn1` . Fill in?
Result :: 1.35

Query :: Missing value: composite z-score, Human papillomavirus type 1a protein E7 (residues 44-93), entry `C[C@@H](c1ccccc1)N1C(=O)[C@H]2[C@H]3[C@H](O)C=CC(=O)[C@@H]3CC[C@H]2C1=O` . Fill in?
Result :: -0.116

Query :: Missing value: composite z-score, Human papillomavirus type 1a protein E7 (residues 44-93), entry `CCOC(=O)C1=CC[C@H]2C(=O)N(CC)C(=O)[C@@H]12` . Fill in?
Result :: 1.19

Query :: Missing value: composite z-score, Human papillomavirus type 1a protein E7 (residues 44-93), entry `O=C1[C@H]2[C@H]3[C@H](O)[C@H](O)CC(=NOCc4ccccc4)[C@@H]3CC[C@H]2C(=O)N1Cc1ccccc1` . Fill in?
Result :: 0.813

Query :: Missing value: composite z-score, Human papillomavirus type 1a protein E7 (residues 44-93), entry `CCc1cccc(NC(=O)O[C@H]2[C@H](OC(=O)Nc3ccc4c(c3)OCO4)[C@@H](OC(=O)Nc3ccc4c(c3)OCO4)[C@@H](OC)O[C@@H]2CO)c1` . Fill in?
Result :: 1.4

###

System: Fibrinogen (Alexa647-labelled)
Experiment: fibrinogen binders on compound microarrays, profiling panel, artefact control for SMM control-protein annotation, biochemical, small-molecule microarray, 635/667 nm fluorescence (AID 1131);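 note: z-score merges 667 nm fluorescence with per-spot signal-to-noise over triplicate slides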
Settings: fibrinogen-A647 binding fluorescence, higher = more signal
Parameter threshold = -0.2. Response is MET when composite z-score meets or exceeds it, else NOT MET.

INSERT INTO results (molecule, assignedclass) VALUES
  ('COC(=O)[C@@]1(Cc2ccc(F)cc2)[C@@H]2C(=CC(=O)[C@H]2CC(=O)C(=O)N(C)C)CN1C(=O)c1ccccc1', 'MET'),
  ('COCCCNC(=O)[C@@]1(Sc2ccc(C)cc2)CC(=O)N(Cc2ccccc2)[C@@H]1c1ccc(CO)cc1I', 'MET'),
  ('C[C@@H]1CC[C@H]2C(=O)O[C@H](COc3ccc(C(C)(C)C)cc3)CN2[C@H]1c1ccc(Br)cc1', 'MET');

Query :: Say whether `CC(C)[C@@H](OCc1ccccc1)[C@H](C)C=NOC[C@@H](C)[C@H](OCc1ccccc1)C(C)C` shows composite z-score of -0.2 or more.
Result :: MET

Query :: Say whether CCN1C(=O)[C@H]2[C@H]3[C@H](O)[C@H](O)CC(=NOC(C)CN4CCCCc5nc(C)c(C)cc54)[C@@H]3CC[C@H]2C1=O (some centres not stated) shows composite z-score of -0.2 or more.
Result :: NOT MET
